- assayNotes: AUC (0 to 24 hrs) in male Beagle dog at 3 mg/kg, po or 1 mg/kg, iv measured upto 24 hrs
- Type: ADME, organism-based, Canis lupus familiaris
- conditionSet: in vivo

{"columns": ["compoundString", "AUC (ng·h/mL)"],
 "data": [
  ["CN(C(=O)c1cc2c3c(c(N)nc2cc1F)COC3)[C@@H]1CCN(c2ccc(C#N)cc2)C1", 6140]
]}

----------
Entries and their Cmax values follow.
- assayNotes: Cmax in male CD-1 mouse at 5 mg/kg, po or 1 mg/kg, iv measured upto 24 hrs
- Assay type: ADME, organism-based
- conditionSet: in vivo

{"columns": ["compoundString", "Cmax"],
 "data": [
  ["CN(C(=O)c1cc2c3c(c(N)nc2cc1F)COC3)[C@@H]1CCN(c2ccc(C#N)cc2)C1", "1720 ng/mL"],
  ["Cc1cc2nc(N)c3c(c2cc1C(=O)N(C)[C@@H]1CCN(c2ccc(C#N)cc2)C1)COC3", "611 ng/mL"]
]}

----------
Each record here notes measured pIC50.
- System: HCT-116
- assayNotes: Antiproliferative activity against MTAP deleted human HCT-116 cells assessed as inhibition of cell viability by luminescence based cell titer-glo assay
- Format: functional
pIC50: −log10 of the molar value.

{"columns": ["compoundString", "pIC50"],
 "data": [
  ["CN(C(=O)c1ccc2nc(N)c3c(c2c1)COC3)[C@@H]1CCN(c2ccc(C(F)(F)F)cc2)C1", 5.96],
  ["CN(C(=O)c1ccc2nc(N)c3c(c2c1)COC3)[C@H]1CCCN(c2ccccc2)C1", 5.22],
  ["CN(C(=O)c1ccc2nc(N)c3c(c2c1)COC3)C1CN(c2ccccc2)C1", 5.80],
  ["CN(C(=O)c1ccc2nc(N)c3c(c2c1)COC3)[C@@H]1CCN(c2ccc(C3=CCOCC3)cc2)C1", 6.35],
  ["CN(C(=O)c1ccc2nc(N)c3c(c2c1)COC3)[C@@H]1CCN(c2cccc(C#N)c2)C1", 6.50],
  ["N#Cc1ccc(N2C[C@@H]3C[C@H]2CN3C(=O)c2ccc3nc(N)c4c(c3c2)COC4)cc1", 5.50],
  ["CN(C(=O)c1cc2c3c(c(N)nc2cn1)COC3)[C@@H]1CCN(c2ccc(C#N)cc2)C1", 6.86],
  ["CN(C(=O)c1ccc2nc(N)c3c(c2c1)COC3)C1CCN(c2ccccc2)CC1", 5.41],
  ["Nc1nc2ccc(C(=O)N3C[C@@H]4C[C@H]3CN4c3ccccc3)cc2c2c1COC2", 6.14]
]}

----------
- assayNotes: Oral bioavailability in male CD-1 mouse at 5 mg/kg or 1 mg/kg, iv measured upto 24 hrs
- Type: ADME, organism-based
- conditionSet: in vivo

{"columns": ["compoundString", "bioavailability, %"],
 "data": [
  ["CN(C(=O)c1cc2c3c(c(N)nc2cc1F)COC3)[C@@H]1CCN(c2ccc(C#N)cc2)C1", 105],
  ["Cc1cc2nc(N)c3c(c2cc1C(=O)N(C)[C@@H]1CCN(c2ccc(C#N)cc2)C1)COC3", 83.1]
]}

----------
- Test system: MDA-MB-436
- assayNotes: Antiproliferative activity against MTAP wild type human MDA-MB-436 cells assessed as inhibition of cell viability measured after 10 days by luminescence based cell titer-glo assay
- Assay type: functional
- conditionSet: MDA-MB-436, 240 h
pIC50: −log10 of the molar value.

{"columns": ["compoundString", "pIC50"],
 "data": [
  ["CN(C(=O)c1cc2c3c(c(N)nc2cc1F)COC3)[C@@H]1CCN(c2ccc(C#N)cc2)C1", 5.31]
]}
